TESTED SYSTEM: Glucocorticoid Receptor (GR), CHO-GRE-Luc #35 cells (Cricetulus griseus, UniProt A0A9J7F8I2)
Sequence (A0A9J7F8I2 1-774): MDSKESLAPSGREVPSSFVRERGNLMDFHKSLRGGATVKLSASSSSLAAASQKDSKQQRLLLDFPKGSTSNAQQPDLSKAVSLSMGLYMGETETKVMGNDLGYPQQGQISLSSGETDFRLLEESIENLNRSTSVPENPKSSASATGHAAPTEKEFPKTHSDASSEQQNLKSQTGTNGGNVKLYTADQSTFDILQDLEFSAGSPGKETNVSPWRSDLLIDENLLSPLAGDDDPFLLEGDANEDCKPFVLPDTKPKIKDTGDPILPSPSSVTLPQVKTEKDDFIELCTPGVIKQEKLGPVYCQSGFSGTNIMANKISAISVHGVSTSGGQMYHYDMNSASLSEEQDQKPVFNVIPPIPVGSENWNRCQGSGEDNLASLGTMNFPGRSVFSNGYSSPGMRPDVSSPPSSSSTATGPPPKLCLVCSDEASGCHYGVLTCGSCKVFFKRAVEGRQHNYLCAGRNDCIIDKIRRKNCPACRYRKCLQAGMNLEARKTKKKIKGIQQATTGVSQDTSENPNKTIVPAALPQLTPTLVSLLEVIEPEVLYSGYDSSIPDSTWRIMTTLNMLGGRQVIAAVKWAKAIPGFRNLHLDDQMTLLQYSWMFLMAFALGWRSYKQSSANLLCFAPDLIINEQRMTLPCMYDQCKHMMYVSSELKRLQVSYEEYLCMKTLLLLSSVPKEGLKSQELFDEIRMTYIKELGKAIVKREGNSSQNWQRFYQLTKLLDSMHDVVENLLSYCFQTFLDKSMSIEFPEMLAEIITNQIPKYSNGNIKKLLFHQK
METHOD: Glucocorticoid receptor function test using transgenic-recombinant cell (GRE-luciferase)
Assay type: cell-based
EXPERIMENTAL SETUP: against GR stimulation with 10 nM dexamethasone, luciferase, about 6 hr; read-out: GR (IC50: nM)
Property: IC50; scope: individual compounds
READOUT KIND: IC50

                                    compound  value_reported
 0  CC1(C)Nc2c(cc(-c3cccc4nccn34)c3c2CCC3)C(C)(C)C1=O [Example 14]           21 nM
 1  CC1(C)Nc2c(cc(-c3cncc4nccn34)c3occc23)C(C)(C)C1=O [Example 100]           47 nM
 2  Cc1noc(C)c1-c1cc2c(c3c1OCC3)NC(C)(C)C(=O)C2(C)C [Example 84]           49 nM
 3  C=CCC1(C)C(=O)C(C)(C)Nc2c1cc(-c1cccc3nccn13)c1c2CCC1 (stereo not drawn) [Example 57]           69 nM
 4  CC1(C)Nc2c(cc(-c3cccc4ncccc34)c3c2OCO3)C(C)(C)C1=O [Example 72]           40 nM
 5  CC1(C)Nc2c(cc(-c3ccnc4ncccc34)c3c2CCC3)C(C)(C)C1=O [Example 21]           53 nM
 6  C=CCC1(C)C(=O)C(C)(C)Nc2c1cc(-c1c(C)noc1C)c1c2CCC1 (stereo not drawn) [Example 51]           33 nM
 7  CC1(C)Nc2c(cc(-c3ccnc4ncccc34)c3c2CCO3)C(C)(C)C1=O [Example 92]           73 nM
 8  CC1(C)Nc2c(cc(-c3ccnc4cc[nH]c34)c3c2CCC3)C(C)(C)C1=O [Example 13]           31 nM
 9  CC1(C)Nc2c(cc(-c3cccc4ncccc34)c3c2CCC3)C(C)(C)C1=O [Example 20]           74 nM
10  CC1(C)Nc2c(cc(-c3cccc4nccn34)c3c2OCO3)C(C)(C)C1=O [Example 71]           59 nM
11  C=C1C(C)(C)Nc2c(cc(-c3c(C)ncn3C)c3c2CCC3)C1(C)C [Example 29]           69 nM
12  Cc1noc(C)c1-c1cc2c(c3c1OCO3)NC(C)(C)C(=O)C2(C)C [Example 69]           77 nM
13  CC1(C)Nc2c(cc(-c3cccc4ncccc34)c3occc23)C(C)(C)C1=O [Example 101]           37 nM
14  CCC1(C)C(=O)C(C)(C)Nc2c1cc(-c1cccc3nccn13)c1c2CCC1 (stereo not drawn) [Example 58]           37 nM
15  Cc1onc(CO)c1-c1cc2c(c3ccoc13)NC(C)(C)C(=O)C2(C)C [Example 94]           66 nM
16  Cc1nnn(C)c1-c1cc2c(c3c1CCC3)NC(C)(C)C(=O)C2(C)C [Example 4]           86 nM
17  CC#CCC1(C)C(=O)C(C)(C)Nc2c1cc(-c1cccc3nccn13)c1c2CCC1 (stereo not drawn) [Example 63]           48 nM
